- Measurement description: MRT in Sprague-Dawley rat plasma at 10 mg/kg, po
- Type: ADME, organism-based
Observable: MRT
The answer should read as a number with its unit following.

-- ask Fill in the blank: the reported MRT of COc1cc2c(cc1OC)C(=O)C(CC1(F)CCN(Cc3ccccc3F)CC1)C2 (stereo unspecified) is ____.
-- reply 6.81 h

====

- Assayed system: Acetylcholinesterase (Rattus norvegicus, UniProt P37136)
- Sequence (P37136 whole entry): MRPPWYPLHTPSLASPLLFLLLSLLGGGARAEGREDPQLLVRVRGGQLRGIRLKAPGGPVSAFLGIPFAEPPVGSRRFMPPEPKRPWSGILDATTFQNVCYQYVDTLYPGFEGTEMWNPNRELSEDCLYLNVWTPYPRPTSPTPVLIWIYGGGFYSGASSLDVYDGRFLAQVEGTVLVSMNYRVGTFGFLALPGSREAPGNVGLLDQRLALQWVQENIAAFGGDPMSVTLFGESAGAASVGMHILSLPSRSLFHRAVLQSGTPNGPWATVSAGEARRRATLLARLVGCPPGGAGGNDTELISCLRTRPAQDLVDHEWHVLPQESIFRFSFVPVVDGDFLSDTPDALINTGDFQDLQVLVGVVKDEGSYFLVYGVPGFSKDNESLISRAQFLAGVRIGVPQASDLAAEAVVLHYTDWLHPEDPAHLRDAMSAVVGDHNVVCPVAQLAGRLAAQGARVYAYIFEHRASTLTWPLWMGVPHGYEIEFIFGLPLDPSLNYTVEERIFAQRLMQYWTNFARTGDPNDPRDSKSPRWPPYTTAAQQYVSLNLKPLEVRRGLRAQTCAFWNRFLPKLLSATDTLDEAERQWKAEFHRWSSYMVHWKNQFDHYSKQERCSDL
pIC50: −log10 of the molar value.
Hi, to clarify the labels: Condition met covers pIC50 from 7 upward, Condition not met covers anything below 7.

- COc1cc2c(cc1F)CC(CC1(F)CCN(Cc3ccc(F)cc3)CC1)C2=O (stereo unspecified): Condition met
- COc1cc2c(cc1OC)C(=O)C(CC1(F)CCN(CCc3cccc(F)c3)CC1)C2 (stereo unspecified): Condition met
- COc1cc2c(cc1OCC1CC1)C(=O)C(CC1(F)CCN(Cc3ccc(F)cc3F)CC1)C2 (stereo unspecified): Condition met
- CCCCOc1cc2c(cc1OCCCC)C(=O)C(CC1(F)CCN(Cc3ccccc3F)CC1)C2 (stereo unspecified): Condition not met

With those in mind, consider the next compound.
-- ask Textbook exercise: given the entry COc1cc2c(cc1OCC1CC1)C(=O)C(CC1(F)CCN(Cc3cccc(F)c3)CC1)C2 (stereo unspecified) , state whether its pIC50 is greater than or equal to 7.
-- reply Condition met

====

- Measurement description: Cmax in human plasma at 12 mg, po
- Format: ADME, cell-free
- Set-up: route oral, dose 12 mg
Observable: Cmax (ng/mL)
Numbers only here, please. The scale is ng/mL.

-- ask Given the entry COc1cc2c(cc1OC)C(=O)C(CC1(F)CCN(Cc3ccccc3F)CC1)C2 (stereo unspecified) , report its measured Cmax.
-- reply 23.5

====

- Measurement description: Cmax in Sprague-Dawley rat brain at 10 mg/kg, po
- Type: ADME, organism-based
- Design: route oral, dose 10 mg/kg
Observable: Cmax (ng/mL)
Write the number in ng/mL without appending the unit.

-- ask Value lookup for Cmax; key = COc1cc2c(cc1OC)C(=O)C(CC1(F)CCN(Cc3ccccc3F)CC1)C2 (stereo unspecified)
-- reply 831
